Target: Cathepsin B (Homo sapiens, UniProt P07858)
Construct: purchased Biovision K147-100
Assay: IC50 determination against Cathepsin B (Biovision kit K147-100)
Format: biochemical
Conditions: CTSB; average of Exp-1 and Exp-2; read-out: Ave of IC50
assay metric: IC50 (nM)

molecule	experimental result
CCOC(=O)[C@H]1O[C@@H]1C(=O)N[C@@H](CCSC)C(=O)NCCCc1ccccc1 [Compound 8]	19.2

(P) CCOC(=O)[C@H]1O[C@@H]1C(=O)N[C@@H](CCSC)C(=O)NC(CC)CC [Compound 39]
(Q) CCOC(=O)[C@H]1O[C@@H]1C(=O)N[C@@H](CCSC)C(=O)NCCc1cccc(F)c1 [Compound 34]
Hi, I'm comparing P with Q and wondering which one has the bigger number for IC50. Any idea? Please reply using the label of the selected record. P
(P: 74.3 nM, Q: 24.1 nM)

----------
Molecular target: Cathepsin K (Homo sapiens)
Construct: purchased Biovision K150-100
Sequence (P43235 115-329): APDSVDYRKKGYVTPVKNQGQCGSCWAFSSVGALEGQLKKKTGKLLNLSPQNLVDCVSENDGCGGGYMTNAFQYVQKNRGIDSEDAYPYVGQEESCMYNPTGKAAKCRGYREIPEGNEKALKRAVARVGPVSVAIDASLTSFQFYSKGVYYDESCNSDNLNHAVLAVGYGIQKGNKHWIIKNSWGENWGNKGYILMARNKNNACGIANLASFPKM
Assay: Preliminary screening of Cathepsin K (Cathepsin K Inhibitor Screening Kit K150-100, Biovision)
Format: biochemical
Conditions: 10 μM compound; replicate 2; relative inhibition rate vs 10 μM FF-FMK control; read-out: Inhibition % (10 μM) replicate 2
assay metric: inhibition at 10 µM (%)

Below: 4 compounds and their reported inhibition at 10 µM.
compound	inhibition at 10 µM [%]
CCOC(=O)[C@H]1O[C@@H]1C(=O)N[C@@H](CCSC)C(=O)NC(C)(C)CC	45.4
CCOC(=O)[C@H]1O[C@@H]1C(=O)N[C@@H](CCSC)C(=O)NCC(C)CC (some centres unmarked)	36.7
CCCNC(=O)[C@H](CSCc1ccccc1)NC(=O)[C@H]1O[C@@H]1C(=O)OCC	31.7
CCOC(=O)[C@H]1O[C@@H]1C(=O)N[C@@H](CCSC)C(=O)N1CCCC1	15.2

(I) CCOC(=O)[C@H]1O[C@@H]1C(=O)N[C@@H](CCSC)C(=O)NCCc1ccc(C)cc1
(II) CCOC(=O)[C@H]1O[C@@H]1C(=O)N[C@@H](CCSC)C(=O)NCCCc1ccccc1
Could you tell me which of I and II has the lower inhibition at 10 µM reading? Please reply using the label of the selected record. I

----------
Biological target: Cathepsin B (Homo sapiens, UniProt P07858)
Construct: purchased Biovision K147-100
Assay: IC50 determination against Cathepsin B (Biovision kit K147-100)
Assay type: biochemical
Details: selectivity for Cathepsin B over Cathepsin K
assay metric: Selectiviy vs Cathepsin K (fold)

Below: 2 compounds and their reported Selectiviy vs Cathepsin K (fold).
compound	Selectiviy vs Cathepsin K (fold)
CCOC(=O)[C@H]1O[C@@H]1C(=O)N[C@@H](CCSC)C(=O)NCCc1cccc(F)c1 [Compound 34]	21
CCOC(=O)[C@H]1O[C@@H]1C(=O)N[C@@H](CC(C)C)C(=O)NCCC(C)C [zxy-37, E64d, reference compound]	39

(1) CCOC(=O)[C@H]1O[C@@H]1C(=O)N[C@@H](CCSC)C(=O)NCCCCc1ccccc1 [Compound 40]
(2) CCCCCCNC(=O)[C@H](CCSC)NC(=O)[C@H]1O[C@@H]1C(=O)OCC [Compound 5]
(3) CCOC(=O)[C@H]1O[C@@H]1C(=O)N[C@@H](CCSC)C(=O)NCCCc1ccccc1 [Compound 8]
(4) CCOC(=O)[C@H]1O[C@@H]1C(=O)N[C@@H](CCSC)C(=O)N1CCC(c2ccccc2)CC1 [Compound 13]
Rank order required: Selectiviy vs Cathepsin K (fold), descending. Please express your ranking as an ordered list of the labels. 2, 3, 4, 1
